# pIC50 values compiled below
Biological target: JAK1 (Homo sapiens (Human), UniProt P23458)
Sequence (P23458 whole entry): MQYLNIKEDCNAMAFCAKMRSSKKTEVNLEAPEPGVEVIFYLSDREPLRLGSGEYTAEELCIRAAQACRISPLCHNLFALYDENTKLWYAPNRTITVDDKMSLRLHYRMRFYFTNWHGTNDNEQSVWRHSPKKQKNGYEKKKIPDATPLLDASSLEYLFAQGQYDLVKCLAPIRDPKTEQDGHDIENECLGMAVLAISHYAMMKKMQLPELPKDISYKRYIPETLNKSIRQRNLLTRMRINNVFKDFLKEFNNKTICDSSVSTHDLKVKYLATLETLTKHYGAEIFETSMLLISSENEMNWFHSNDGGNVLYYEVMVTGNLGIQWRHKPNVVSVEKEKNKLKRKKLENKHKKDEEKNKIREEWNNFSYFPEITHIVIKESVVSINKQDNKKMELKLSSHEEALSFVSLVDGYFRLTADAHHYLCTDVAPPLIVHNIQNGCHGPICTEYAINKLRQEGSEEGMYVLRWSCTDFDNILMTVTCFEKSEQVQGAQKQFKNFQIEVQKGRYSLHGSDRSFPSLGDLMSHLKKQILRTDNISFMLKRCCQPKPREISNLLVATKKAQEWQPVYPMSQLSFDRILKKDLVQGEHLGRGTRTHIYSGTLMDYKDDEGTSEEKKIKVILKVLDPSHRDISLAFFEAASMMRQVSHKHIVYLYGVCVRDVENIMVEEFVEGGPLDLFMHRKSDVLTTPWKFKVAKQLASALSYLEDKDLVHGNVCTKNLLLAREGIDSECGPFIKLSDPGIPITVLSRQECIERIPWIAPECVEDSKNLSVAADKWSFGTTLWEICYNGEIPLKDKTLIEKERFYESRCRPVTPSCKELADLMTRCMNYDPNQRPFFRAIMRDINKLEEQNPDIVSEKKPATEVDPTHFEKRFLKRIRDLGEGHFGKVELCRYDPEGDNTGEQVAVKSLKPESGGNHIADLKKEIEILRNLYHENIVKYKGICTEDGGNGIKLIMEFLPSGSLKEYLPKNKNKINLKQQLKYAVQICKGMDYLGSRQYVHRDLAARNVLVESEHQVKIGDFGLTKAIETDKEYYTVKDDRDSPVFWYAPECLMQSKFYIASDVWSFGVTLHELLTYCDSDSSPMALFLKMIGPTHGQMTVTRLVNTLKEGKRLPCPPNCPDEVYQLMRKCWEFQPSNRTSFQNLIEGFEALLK
Assay: Analysis of JAK1 activity inhibition ability (ADP-Glo Kinase Assay)
Type: biochemical
Details: JAK1 enzyme, ADP-Glo luminescence, ATP 250 uM, IRS-itide substrate, 30° C. 40 minutes; read-out: IC50
Procedure: Test Example 1: Analysis of JAK1 Activity Inhibition Ability of Compound of Formula 1 (ADP-Glo™ Kinase Assay) A JAK inhibition ability of a compound according to the present invention was identified as follows. A control material and a test material were prepared for each concentration, in such a way that they were diluted by means of DMSO. […]
pIC50: −log10 of the molar value.

// query pIC50 value for entry COC(=O)C1(C(=O)N2CC=C(c3cc(NC(=O)C4CC4)nc4[nH]ccc34)C(C)C2)CCC1 (stereo not shown)
< 6.70

Next record, please: Cc1ccc(S(=O)(=O)Nc2ccc(-c3cc(NC(=O)C4CC4)nc4[nH]ccc34)cc2)cc1
6.70 to 7.70

Next record, please: N#CCC1(CS(=O)(=O)Nc2ccc(-c3cc(NC(=O)C4CC4)nc4[nH]ccc34)cc2)CC1
> 7.70

Next record, please: CC1CN(C(=O)NCC(F)(F)F)CC=C1c1cc(NC(=O)C2CC2)nc2[nH]ccc12 (stereo not shown)
> 7.70

Next record, please: CC1CN(C(=O)c2ccc3c(c2)OCCO3)CC=C1c1cc(NC(=O)C2CC2)nc2[nH]ccc12 (stereo not shown)
6.70 to 7.70

Next record, please: C[C@@H]1CN(C(=O)CCl)CC=C1c1cc(NC(=O)C2CC2)nc2[nH]ccc12
6.70 to 7.70

Next record, please: O=C(Nc1cc(C2=CCN(C(=O)n3ccnc3)CC2)c2cc[nH]c2n1)C1CC1
6.70 to 7.70

Next record, please: CC1(C)CN(C(=O)CC#N)CC=C1c1cc(NC(=O)C2CC2)nc2[nH]ccc12
6.70 to 7.70

Next record, please: O=C(Nc1cc(-c2ccc(NS(=O)(=O)c3ccc(-n4cnnn4)cc3)cc2)c2cc[nH]c2n1)C1CC1
6.70 to 7.70

Next record, please: CCCS(=O)(=O)Nc1ccc(-c2cc(NC(=O)C3CC3)nc3[nH]ccc23)nc1F
< 6.70

Next record, please: N#CCC1(CS(=O)(=O)N2C3CCC2CN(c2cc(NC(=O)C4CC4)nc4[nH]ccc24)C3)CC1
6.70 to 7.70

Next record, please: CC1CN(C(=O)c2ccnc(C(F)(F)F)c2)CC=C1c1cc(NC(=O)C2CC2)nc2[nH]ccc12 (stereo not shown)
6.70 to 7.70

Next record, please: CS(=O)(=O)N1CCN(Cc2ccc(-c3cc(NC(=O)C4CC4)nc4[nH]ccc34)cc2)CC1
> 7.70

###

# IC50 values compiled below
target: JAK1 (Homo sapiens (Human)); assay: Analysis of JAK1 activity inhibition ability (ADP-Glo Kinase Assay); type: biochemical; settings: JAK1 enzyme, ADP-Glo luminescence, ATP 250 uM, IRS-itide substrate, 30° C. 40 minutes; read-out: IC50

COMPOUND: C[C@@H]1CN(C(=O)c2ccnc(Cl)c2)CC=C1c1cc(NC(=O)C2CC2)nc2[nH]ccc12
MEASUREMENT_TARGET: JAK1 (Homo sapiens (Human))
MEASURE: IC50
RESULT: < 20 nM

COMPOUND: CCCCS(=O)(=O)Nc1ccc(-c2nc(NC(=O)C3CC3)nc3[nH]ccc23)cc1
MEASUREMENT_TARGET: JAK1 (Homo sapiens (Human))
MEASURE: IC50
RESULT: < 20 nM

COMPOUND: O=C(Nc1cc(-c2ccc(NC(=O)N3CCOCC3)cc2)c2cc[nH]c2n1)C1CC1
MEASUREMENT_TARGET: JAK1 (Homo sapiens (Human))
MEASURE: IC50
RESULT: 20 to 200 nM

// query IC50 value for entry O=C(Nc1cc(C2=CCN(C(=O)NC(C3CC3)C(F)(F)F)CC2)c2cc[nH]c2n1)C1CC1 (stereo not shown)
> 200 nM

Next record, please: O=C(Nc1nc(-c2ccc(CN3CCS(=O)(=O)CC3)cc2)c2nc[nH]c2n1)C1CC1
> 200 nM

Next record, please: CN(C)S(=O)(=O)Nc1ccc(-c2nc(NC(=O)C3CC3)nc3[nH]ccc23)cc1
20 to 200 nM

Next record, please: CC(C#N)C(=O)N1CC=C(c2cc(NC(=O)C3CC3)nc3[nH]ccc23)CC1 (stereo not shown)
< 20 nM

Next record, please: C=CCC(=O)N1CC=C(c2cc(NC(=O)C3CC3)nc3[nH]ccc23)CC1
> 200 nM

Next record, please: CCCCS(=O)(=O)Oc1ccc(-c2cc(NC(=O)C3CC3)nc3[nH]ccc23)cc1
20 to 200 nM

Next record, please: O=C(Nc1cc(-c2ccc(NS(=O)(=O)C3CCCCC3)cc2)c2cc[nH]c2n1)C1CC1
< 20 nM

Next record, please: C=CCS(=O)(=O)Nc1ccc(-c2cc(NC(=O)C3CC3)nc3[nH]ccc23)cc1
< 20 nM

Next record, please: O=C(NCC(F)(F)F)NC1CC=C(c2cc(NC(=O)C3CC3)nc3[nH]ccc23)CC1 (stereo not shown)
< 20 nM

Next record, please: CCc1cc(NS(=O)(=O)CC2(C#N)CC2)ccc1-c1cc(NC(=O)C2CC2)[n+]([O-])c2[nH]ccc12
< 20 nM

###

target: JAK1 (Homo sapiens (Human)); test: Analysis of JAK1 activity inhibition ability (ADP-Glo Kinase Assay); format: biochemical; details: JAK1 enzyme, ADP-Glo luminescence, ATP 250 uM, IRS-itide substrate, 30° C. 40 minutes; read-out: IC50
# IC50 values compiled below

Look over these answered cases.
MOLECULE: CC(C)(C)OC(=O)N[C@H]1CCN(c2nc(NC(=O)C3CC3)nc3[nH]ccc23)C1 [Example 696]
IC50: > 0.2 µM
--
MOLECULE: CCS(=O)(=O)Nc1ccc(-c2cc(NC(=O)C3CC3)[n+]([O-])c3[nH]ccc23)cc1F [Example 97]
IC50: 0.02 to 0.2 µM
--
MOLECULE: O=C(Nc1cc(-c2ccc(NS(=O)(=O)c3ccc(Cl)cc3)cc2)c2cc[nH]c2n1)C1CC1 [Example 14]
IC50: < 0.02 µM
--
MOLECULE: C[C@@H]1C=C(c2cc(NC(=O)C3CC3)nc3[nH]ccc23)CCN1C(=O)CC#N [Example 388]
IC50: < 0.02 µM
--
MOLECULE: CCCS(=O)(=O)Nc1ccc(-c2cc(NC(=O)C3CC3)nc3[nH]ccc23)cc1F [Example 66]
IC50: < 0.02 µM

// query IC50 value for entry O=C(Nc1cc(-c2ccc(NC3CN(C(=O)CC(F)(F)F)C3)cc2)c2cc[nH]c2n1)C1CC1 [Example 517]
0.02 to 0.2 µM

Next record, please: CC1CC1C(=O)NC1CC=C(c2cc(NC(=O)C3CC3)nc3[nH]ccc23)CC1 (stereo not shown) [Example 244]
> 0.2 µM

Next record, please: O=C(Nc1cc(C2=CCN(C(=O)CCC(F)(F)F)CC2)c2cc[nH]c2n1)C1CC1 [Example 254]
0.02 to 0.2 µM

Next record, please: CC1CN(C(=O)C(C#N)Cc2ccc(F)cc2)CC=C1c1cc(NC(=O)C2CC2)nc2[nH]ccc12 (stereo not shown) [Example 359]
0.02 to 0.2 µM

Next record, please: N#CCC(=O)N1CCC(Nc2ccc(-c3cc(NC(=O)C4CC4)nc4[nH]ccc34)cc2)CC1 [Example 516]
0.02 to 0.2 µM

Next record, please: CCCS(=O)(=O)Oc1ccc(-c2cc(NC(=O)C3CC3)nc3[nH]ccc23)cc1 [Example 631]
0.02 to 0.2 µM

Next record, please: CC1CN(C(=O)c2ccnc(Cl)c2)CC=C1c1cc(NC(=O)C2CC2)nc2[nH]ccc12 (stereo not shown) [Example 310]
< 0.02 µM

Next record, please: CCS(=O)(=O)NC1CCC(c2cc(NC(=O)C3CC3)nc3[nH]ccc23)CC1 (stereo not shown) [Example 645]
0.02 to 0.2 µM

Next record, please: CCNC(=S)Nc1ccc(-c2cc(NC(=O)C3CC3)nc3[nH]ccc23)cc1 [Example 462]
0.02 to 0.2 µM

Next record, please: CC(C)(C)OC(=O)N1CC(CC#N)(N2CC=C(c3cc(NC(=O)C4CC4)nc4[nH]ccc34)CC2)C1 [Example 614]
> 0.2 µM

Next record, please: O=C(Nc1cc(C2=CCN(C(=O)C3CC(F)(F)C3)CC2)c2cc[nH]c2n1)C1CC1 [Example 260]
0.02 to 0.2 µM

###

Target: JAK1 (Homo sapiens (Human), UniProt P23458)
Test: Analysis of JAK1 activity inhibition ability (ADP-Glo Kinase Assay)
Format: biochemical
Details: JAK1 enzyme, ADP-Glo luminescence, ATP 250 uM, IRS-itide substrate, 30° C. 40 minutes; read-out: IC50
Experimental: Test Example 1: Analysis of JAK1 Activity Inhibition Ability of Compound of Formula 1 (ADP-Glo™ Kinase Assay) A JAK inhibition ability of a compound according to the present invention was identified as follows. A control material and a test material were prepared for each concentration, in such a way that they were diluted by means of DMSO. […]
pIC50: −log10 of the molar value.
# pIC50 values compiled below

Look over these answered cases.
COMPOUND: CC1(C)CC(c2cc(NC(=O)C3CC3)nc3[nH]ccc23)=CCN1C(=O)CC#N
MEASURE: pIC50
RESULT: 6.70 to 7.70
--
COMPOUND: Cc1cc(NC(=O)CC#N)ccc1-c1cc(NC(=O)C2CC2)nc2[nH]ccc12
MEASURE: pIC50
RESULT: < 6.70

// query pIC50 value for entry N#CCCC(=O)N1C2C=C(c3cc(NC(=O)C4CC4)nc4[nH]ccc34)CC1CC2 (stereo not shown)
> 7.70

Next record, please: CCS(=O)(=O)NC1CC=C(c2cc(NC(=O)C3CC3)nc3[nH]ccc23)CC1 (stereo not shown)
6.70 to 7.70

Next record, please: CC1CN(C(=O)c2ccncc2O)CC=C1c1cc(NC(=O)C2CC2)nc2[nH]ccc12 (stereo not shown)
< 6.70

Next record, please: O=C(Nc1cc(-c2ccc(OCCN3CCOCC3)cc2)c2cc[nH]c2n1)C1CC1
6.70 to 7.70

Next record, please: CC(C)(C)OC(=O)N1C=C(c2cc(NC(=O)C3CC3)nc3[nH]ccc23)CCC1
< 6.70

Next record, please: CC(C)S(=O)(=O)Nc1ccc(-c2cc(NC(=O)C3CC3)nc3[nH]ccc23)cc1
> 7.70

Next record, please: N#CC1CC(N2CC=C(c3cc(NC(=O)C4CC4)nc4[nH]ccc34)CC2)C1 (stereo not shown)
6.70 to 7.70

Next record, please: CC1CN(C(=O)c2ccc(F)cc2Cl)CC=C1c1cc(NC(=O)C2CC2)nc2[nH]ccc12 (stereo not shown)
6.70 to 7.70

Next record, please: CC(C)(C)OC(=O)N1CCCC(NC(=O)Cc2ccc(-c3cc(NC(=O)C4CC4)nc4[nH]ccc34)cc2)C1 (stereo not shown)
< 6.70

Next record, please: C[C@@H]1CN(C(=O)C(C#N)=Cc2cccs2)CC=C1c1cc(NC(=O)C2CC2)nc2[nH]ccc12
6.70 to 7.70

Next record, please: N#CCC(=O)N1C2CCC1CN(c1nc(NC(=O)C3CC3)nc3[nH]ccc13)C2
6.70 to 7.70

Next record, please: O=C(Nc1cc(C2=CCC(NS(=O)(=O)C3CC3)CC2)c2cc[nH]c2n1)C1CC1 (stereo not shown)
6.70 to 7.70

Next record, please: CCCCNC(=O)N1CCC(c2cc(NC(=O)C3CC3)nc3[nH]ccc23)CC1
< 6.70

Next record, please: O=C(Nc1cc(C2=CCN(C(=O)c3ccnc(F)c3F)CCC2)c2cc[nH]c2n1)C1CC1
> 7.70

Where do the numbers come from? From patent US11524968B2.
